Reference source for all entries: ChEMBL document CHEMBL4316626

// reported pIC50 per item
# assayed.target: Monoacylglycerol lipase ABHD6 (Mus musculus)
# assay.protocol: Inhibition of FP-rhodamine probe binding to ABHD6 in mouse brain membrane proteome preincubated for 1 hr followed by FP-rhodamine addition and measured after 30 mins by SDS-PAGE based fluorescence assay
pIC50: −log10 of the molar value.
readout.name: pIC50

>>> measured("CN(CCN(C)C(=O)n1cc(C#N)cn1)Cc1ccc(OCc2ccccc2)cc1")
6.49
>>> measured("CN(CCN(C)C(=O)n1cccn1)Cc1ccc(OCc2ccccc2)cc1")
6.28
>>> measured("O=C(N1CCCN(Cc2ccc(OCc3ccccc3)cc2)CC1)n1cccn1")
6.02
>>> measured("Cc1cnn(C(=O)N2CCN(Cc3ccc(OCc4ccccc4)cc3)CC2)c1")
8.00

* * *

# assayed.target: UniProt Q8BLF1
# Sequence (Q8BLF1 whole entry): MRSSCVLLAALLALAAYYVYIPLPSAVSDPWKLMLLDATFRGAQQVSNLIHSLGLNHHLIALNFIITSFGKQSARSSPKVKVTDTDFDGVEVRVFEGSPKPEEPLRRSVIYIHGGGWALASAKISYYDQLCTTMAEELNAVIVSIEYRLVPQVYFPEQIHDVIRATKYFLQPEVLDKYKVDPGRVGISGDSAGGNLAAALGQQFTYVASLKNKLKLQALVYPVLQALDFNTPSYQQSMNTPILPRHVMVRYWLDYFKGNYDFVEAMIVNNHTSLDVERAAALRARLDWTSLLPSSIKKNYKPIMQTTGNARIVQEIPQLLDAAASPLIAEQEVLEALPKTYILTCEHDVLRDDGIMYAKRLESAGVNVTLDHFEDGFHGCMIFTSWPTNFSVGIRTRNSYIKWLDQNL
# assay.protocol: Inhibition of FP-rhodamine probe binding to KIAA1363 in mouse brain membrane proteome preincubated for 1 hr followed by FP-rhodamine addition and measured after 30 mins by SDS-PAGE based fluorescence assay
readout.name: IC50

>>> measured("O=C(N1CCN(C(c2ccc(OCc3ccccc3)cc2)c2ccc(OCc3ccccc3)cc2)CC1)n1cccn1")
"> 100 µM"
>>> measured("O=C(N1CCN(Cc2ccc(OCc3ccccc3)cc2)CC1)n1cccn1")
"> 100 µM"
>>> measured("N#Cc1cnn(C(=O)N2CCN(Cc3ccc(OCc4ccccc4)cc3)CC2)c1")
"> 100 µM"
>>> measured("CN(CCN(C)C(c1ccc(OCc2ccccc2)cc1)c1ccc(OCc2ccccc2)cc1)C(=O)n1cccn1")
"> 1000 µM"
>>> measured("O=C(N1CCN(Cc2ccc3ccccc3c2)CC1)n1cccn1")
"> 100 µM"

* * *

# assayed.target: Fatty-acid amide hydrolase 1 (Mus musculus)
# assay.protocol: Inhibition of FP-rhodamine probe binding to FAAH in mouse brain membrane proteome preincubated for 1 hr followed by FP-rhodamine addition and measured after 30 mins by SDS-PAGE based fluorescence assay
pIC50: −log10 of the molar value.
readout.name: pIC50

>>> measured("N#Cc1cnn(C(=O)N2CCCN(Cc3ccc(OCc4ccccc4)cc3)CC2)c1")
"> 8.00"
>>> measured("Cc1cnn(C(=O)NCc2ccc(OCc3ccccc3)cc2)c1")
5.92
>>> measured("N#Cc1cnn(C(=O)NCc2ccc(OC(c3ccccc3)c3ccccc3)cc2)c1")
"< 4.00"
>>> measured("O=C(NCc1ccc(OC(c2ccccc2)c2ccccc2)cc1)n1cccn1")
"< 4.00"
>>> measured("Cc1cnn(C(=O)NCc2ccc(OC(c3ccccc3)c3ccccc3)cc2)c1")
"< 4.00"
>>> measured("Cc1cnn(C(=O)N(C)CCN(C)C(c2ccc(OCc3ccccc3)cc2)c2ccc(OCc3ccccc3)cc2)c1")
"< 3.00"
>>> measured("N#Cc1cnn(C(=O)N2CCN(Cc3ccc4ccccc4c3)CC2)c1")
"> 8.00"
>>> measured("CN(CCN(C)C(=O)n1cccn1)Cc1ccc(OCc2ccccc2)cc1")
6.29
>>> measured("Cc1cnn(C(=O)N(C)CCN(C)Cc2ccc(OCc3ccccc3)cc2)c1")
5.06
>>> measured("CN(CCN(C)C(c1ccc(OCc2ccccc2)cc1)c1ccc(OCc2ccccc2)cc1)C(=O)n1cc(C#N)cn1")
"< 3.00"

* * *

# assayed.target: Monoacylglycerol lipase ABHD6 (Mus musculus)
# Sequence (Q8R2Y0 whole entry): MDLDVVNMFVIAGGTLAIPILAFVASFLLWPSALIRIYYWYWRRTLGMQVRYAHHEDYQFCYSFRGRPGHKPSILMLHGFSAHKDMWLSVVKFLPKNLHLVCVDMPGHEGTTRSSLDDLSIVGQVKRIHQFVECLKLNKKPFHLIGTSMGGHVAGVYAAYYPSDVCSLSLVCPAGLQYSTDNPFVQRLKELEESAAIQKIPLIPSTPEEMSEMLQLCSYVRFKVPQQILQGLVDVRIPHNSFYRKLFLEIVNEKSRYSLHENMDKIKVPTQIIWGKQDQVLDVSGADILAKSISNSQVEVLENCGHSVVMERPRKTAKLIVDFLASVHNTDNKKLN
# assay.protocol: Inhibition of FP-rhodamine probe binding to ABHD6 in mouse brain membrane proteome preincubated for 1 hr followed by FP-rhodamine addition and measured after 30 mins by SDS-PAGE based fluorescence assay
pIC50: −log10 of the molar value.
# label = Yes if pIC50 >= 6 else No

>>> assigned_class("N#Cc1cnn(C(=O)N2CCN(C(c3ccc4ccccc4c3)c3ccc4ccccc4c3)CC2)c1")
"Yes"
>>> assigned_class("N#Cc1cnn(C(=O)N2CCN(C(c3ccc(OCc4ccccc4)cc3)c3ccc(OCc4ccccc4)cc3)CC2)c1")
"No"
>>> assigned_class("O=C(N1CCN(Cc2ccc3ccccc3c2)CC1)n1cccn1")
"Yes"
>>> assigned_class("Cc1cnn(C(=O)N(C)CCN(C)Cc2cccc(OCc3ccccc3)c2)c1")
"No"
>>> assigned_class("Cc1cnn(C(=O)N2CCN(C(c3ccc(OCc4ccccc4)cc3)c3ccc(OCc4ccccc4)cc3)CC2)c1")
"No"
>>> assigned_class("Cc1cnn(C(=O)N2CCN(C(c3ccc4ccccc4c3)c3ccc4ccccc4c3)CC2)c1")
"No"
>>> assigned_class("N#Cc1cnn(C(=O)N2CCN(Cc3ccc4ccccc4c3)CC2)c1")
"Yes"
>>> assigned_class("N#Cc1cnn(C(=O)N2CCCCC2)c1")
"Yes"

* * *

# assayed.target: Fatty-acid amide hydrolase 1 (Mus musculus, UniProt O08914)
# Sequence (O08914 whole entry): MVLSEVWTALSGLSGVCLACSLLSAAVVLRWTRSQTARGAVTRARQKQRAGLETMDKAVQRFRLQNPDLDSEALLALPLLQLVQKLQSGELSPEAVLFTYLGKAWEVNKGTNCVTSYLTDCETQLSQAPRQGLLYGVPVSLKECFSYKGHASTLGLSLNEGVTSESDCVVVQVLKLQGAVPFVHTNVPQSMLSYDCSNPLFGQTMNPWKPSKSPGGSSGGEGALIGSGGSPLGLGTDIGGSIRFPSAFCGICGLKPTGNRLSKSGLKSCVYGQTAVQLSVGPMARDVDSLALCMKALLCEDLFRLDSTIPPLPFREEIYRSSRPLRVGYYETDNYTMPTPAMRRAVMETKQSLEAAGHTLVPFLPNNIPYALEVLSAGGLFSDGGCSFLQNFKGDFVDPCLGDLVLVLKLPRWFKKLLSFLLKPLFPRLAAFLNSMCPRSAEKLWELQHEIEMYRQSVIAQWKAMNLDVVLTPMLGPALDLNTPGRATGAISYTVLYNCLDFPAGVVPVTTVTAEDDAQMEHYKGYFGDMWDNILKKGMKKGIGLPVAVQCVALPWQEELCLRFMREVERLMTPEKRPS
# assay.protocol: Inhibition of FP-rhodamine probe binding to FAAH in mouse brain membrane proteome preincubated for 1 hr followed by FP-rhodamine addition and measured after 30 mins by SDS-PAGE based fluorescence assay
// reported IC50 per item
readout.name: IC50

>>> measured("N#Cc1cnn(C(=O)N2CCN(Cc3ccc(OCc4ccccc4)cc3)CC2)c1")
"< 0.01 µM"
>>> measured("Cc1cnn(C(=O)N2CCN(C(c3ccc4ccccc4c3)c3ccc4ccccc4c3)CC2)c1")
"> 100 µM"
>>> measured("N#Cc1cnn(C(=O)N2CCCCC2)c1")
"< 0.01 µM"
>>> measured("O=C(N1CCN(C(c2ccc3ccccc3c2)c2ccc3ccccc3c2)CC1)n1cccn1")
"> 100 µM"
>>> measured("CN(CCN(C)C(c1ccc(OCc2ccccc2)cc1)c1ccc(OCc2ccccc2)cc1)C(=O)n1cccn1")
"> 1000 µM"

* * *

# assayed.target: Fatty-acid amide hydrolase 1 (Mus musculus, UniProt O08914)
# assay.protocol: Inhibition of FP-rhodamine probe binding to FAAH in mouse brain membrane proteome preincubated for 1 hr followed by FP-rhodamine addition and measured after 30 mins by SDS-PAGE based fluorescence assay
// reported IC50 per item
readout.name: IC50

>>> measured("Cc1cnn(C(=O)N2CCN(C(c3ccc(OCc4ccccc4)cc3)c3ccc(OCc4ccccc4)cc3)CC2)c1")
"> 100 µM"
>>> measured("O=C(N1CCN(C(c2ccc(OCc3ccccc3)cc2)c2ccc(OCc3ccccc3)cc2)CC1)n1cccn1")
"> 100 µM"
>>> measured("N#Cc1cnn(C(=O)N2CCN(C(c3ccc4ccccc4c3)c3ccc4ccccc4c3)CC2)c1")
"> 100 µM"

* * *

// reported IC50 per item
# assayed.target: Monoglyceride lipase (Mus musculus)
# Sequence (O35678 whole entry): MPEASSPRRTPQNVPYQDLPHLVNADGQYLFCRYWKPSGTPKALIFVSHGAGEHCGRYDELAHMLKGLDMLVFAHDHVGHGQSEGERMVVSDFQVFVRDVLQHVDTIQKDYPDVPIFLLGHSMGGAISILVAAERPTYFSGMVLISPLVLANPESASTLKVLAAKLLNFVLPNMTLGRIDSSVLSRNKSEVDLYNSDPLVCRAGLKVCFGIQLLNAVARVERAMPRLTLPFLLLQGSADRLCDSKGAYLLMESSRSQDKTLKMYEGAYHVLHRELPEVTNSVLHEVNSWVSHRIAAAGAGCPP
# assay.protocol: Inhibition of FP-rhodamine probe binding to MGLL in mouse brain membrane proteome preincubated for 1 hr followed by FP-rhodamine addition and measured after 30 mins by SDS-PAGE based fluorescence assay
readout.name: IC50 (nM)

>>> measured("O=C(N1CCN(Cc2ccc(OCc3ccccc3)cc2)CC1)n1cccn1")
450
>>> measured("Cc1cnn(C(=O)N2CCN(C(c3ccc4ccccc4c3)c3ccc4ccccc4c3)CC2)c1")
260
>>> measured("Cc1cnn(C(=O)N2CCN(Cc3ccc4ccccc4c3)CC2)c1")
920
>>> measured("Cc1cnn(C(=O)N2CCCCC2)c1")
9200
>>> measured("N#Cc1cnn(C(=O)NCc2ccc(OCc3ccccc3)cc2)c1")
100
